# Test system: Hs578T complex spheroid growth, percent test/control
# MEASUREMENT PROTOCOL: Anticancer human tumor Hs578T cell line growth inhibition [AhR];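 further: luminescent viability signal as a proxy for spheroid growth; spheroids exposed to agents for one week after three days of growth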
# EXPERIMENTAL SETUP: curve of first compound; second compound 3.16 µM
REPORTED PROPERTY: IC50 (nM)
API: value field is a number in nM; no unit string.

# IC50 (molecule: COc1cc(C2c3cc4c(cc3C(OC3OC5COC(C)OC5C(O)C3O)C3COC(=O)C23)OCO4)cc(OC)c1O (stereo not given) + Cc1ccccc1N=Nc1ccc(NC(=O)c2ccnn2C)c(C)c1 ) is 8990

# IC50 (molecule: CC(C)CC(NC(=O)C(Cc1ccccc1)NC(=O)c1cnccn1)B(O)O (stereo not given) + CC(CO)NC(=O)c1cc(-c2ccc(Cl)cc2)nn(-c2cnn(C)c2)c1=O ) is 5.03

# IC50 (molecule: NS(=O)(=O)OCC1CC(n2ccc3c(NC4CCc5ccccc54)ncnc32)CC1O (stereo not given) + Cc1cncc(-c2nc(NCCc3c[nH]c4ccccc34)c3ncn(C(C)C)c3n2)c1 ) is 774

====

# Tested on: Hs578T complex spheroid growth, percent test/control
# MEASUREMENT PROTOCOL: Anticancer human tumor Hs578T cell line growth inhibition [AhR];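 further: luminescent viability signal as a proxy for spheroid growth; spheroids exposed to agents for one week after three days of growth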
# EXPERIMENTAL SETUP: curve of first compound; second compound 3.16 µM
# Source text: Multicellular complex tumor spheroid response to aryl hydrocarbon receptor antagonists in combination with a variety of drugs and investigational agents in selected tumor cell lines […] Compounds. […] If the clinical Cmax for an agent had not been determined, the highest concentration tested was 10 microM (Table 1). […]
REPORTED PROPERTY: IC50

# IC50 (compound: CC1COCCN1c1cc(-c2ccnn2C)c2ccnc(-c3ccn[nH]3)c2n1 (stereo not drawn) + Cc1ccccc1N=Nc1ccc(NC(=O)c2ccnn2C)c(C)c1 ) is 0.283 µM

# IC50 (compound: Nc1ccccc1NC(=O)c1ccc(CNC(=O)OCc2cccnc2)cc1 + CC(CO)NC(=O)c1cc(-c2ccc(Cl)cc2)nn(-c2cnn(C)c2)c1=O ) is 1.72 µM

# IC50 (compound: Nc1ccccc1NC(=O)c1ccc(CNC(=O)OCc2cccnc2)cc1 + Cc1ccccc1N=Nc1ccc(NC(=O)c2ccnn2C)c(C)c1 ) is 1.48 µM

# IC50 (compound: O=C(C=Cn1cnc(-c2cc(C(F)(F)F)cc(C(F)(F)F)c2)n1)NNc1cnccn1 + CC(CO)NC(=O)c1cc(-c2ccc(Cl)cc2)nn(-c2cnn(C)c2)c1=O ) is 0.333 µM

# IC50 (compound: Nc1ccccc1NC(=O)c1ccc(CNC(=O)OCc2cccnc2)cc1 + Cc1cncc(-c2nc(NCCc3c[nH]c4ccccc34)c3ncn(C(C)C)c3n2)c1 ) is 0.46 µM

# IC50 (compound: Nc1ccn(C2OC(CO)C(O)C2(F)F)c(=O)n1 (stereo not drawn) + Cc1ccccc1N=Nc1ccc(NC(=O)c2ccnn2C)c(C)c1 ) is < 0.0316 µM

# IC50 (compound: COc1cc(C2c3cc4c(cc3C(OC3OC5COC(C)OC5C(O)C3O)C3COC(=O)C23)OCO4)cc(OC)c1O (stereo not drawn) + Cc1cncc(-c2nc(NCCc3c[nH]c4ccccc34)c3ncn(C(C)C)c3n2)c1 ) is 1.86 µM

# IC50 (compound: Nc1ncn(C2CC(O)C(CO)O2)c(=O)n1 (stereo not drawn) + Cc1ccccc1N=Nc1ccc(NC(=O)c2ccnn2C)c(C)c1 ) is > 1 µM

# IC50 (compound: CCN(c1cc(-c2ccc(CN3CCOCC3)cc2)cc(C(=O)NCc2c(C)cc(C)[nH]c2=O)c1C)C1CCOCC1 + CC(CO)NC(=O)c1cc(-c2ccc(Cl)cc2)nn(-c2cnn(C)c2)c1=O ) is > 3 µM

# IC50 (compound: Cn1ncnc1C1c2n[nH]c(=O)c3cc(F)cc(c23)NC1c1ccc(F)cc1 (stereo not drawn) + Cc1ccccc1N=Nc1ccc(NC(=O)c2ccnn2C)c(C)c1 ) is > 0.1 µM

# IC50 (compound: Nc1ccn(C2OC(CO)C(O)C2(F)F)c(=O)n1 (stereo not drawn) + CC(CO)NC(=O)c1cc(-c2ccc(Cl)cc2)nn(-c2cnn(C)c2)c1=O ) is > 10 µM

# IC50 (compound: COc1cc(Nc2ncc3c(n2)-c2ccc(Cl)cc2C(c2c(F)cccc2OC)=NC3)ccc1C(=O)O + Cc1ccccc1N=Nc1ccc(NC(=O)c2ccnn2C)c(C)c1 ) is > 10 µM

# IC50 (compound: O=C(C=Cc1cccc(S(=O)(=O)Nc2ccccc2)c1)NO + CC(CO)NC(=O)c1cc(-c2ccc(Cl)cc2)nn(-c2cnn(C)c2)c1=O ) is 2.42 µM
